# system: USP8 Rhod domain (Homo sapiens, UniProt P40818)
# Construct: USP8 Rhod (174–317) (UniProt: P40818); GST (cleaved yes); made in house; host or cells: Escherichia coli BL21-Gold (DE3)
# procedure_summary: Peptide-phage display-based deep mutational scanning (DMS), USP8 Rhod domain
# Format: binding
# measurement_context: bait USP8_Rhodanese__P40818_174_317; wild-type/mutant pair ratio of averaged fractions; negative values where mutant fraction is higher
hit_pair_ratio under -1 gets Condition met, anything at or over -1 gets Condition not met.

> print(dat)
    sequence.string        class.label
1  GLALWEAKMKQRAERA  Condition not met
2  GLALWEAKMKQLAERI      Condition met
3  GLALWEAKMKQLAEPA      Condition met
4  GLALWEAKMKQLVERA      Condition met
5  GLALWEAKMKQLAEKA  Condition not met
6  GLALWEAKMKQLMERA  Condition not met

====

# system: USP8 Rhod domain (Homo sapiens)
# Construct: USP8 Rhod (174–317) (UniProt: P40818); GST (cleaved yes); made in house; host or cells: Escherichia coli BL21-Gold (DE3)
# procedure_summary: SPOT array of predicted peptides from known interactors, USP8 Rhod domain
# Assay type: binding
# measurement_context: Rhod-Peptide screening, SPOT array of predicted peptides; KIAA1614 positive control = 100
# From the text: The results therefore support that the USP8 Rhod domain binds to two distinct types of motifs (Fig. 4A, B). We used the motifs to scan for matching motifs in previously reported interactors using the SLiMSearch algorithm (Supplementary Table S8 A). As there was no clear match for the TET3-type motif except from only one hit, we focused on the KIAA1614-type motif. […] Both TP63 and USP21 are previously reported USP8 substrates, and the interactions may potentially contribute to substrate targeting. […]
Measured Percentage (%) normalized to highest intensity and corrected for background accompanies every entry in the list below.
quantity_kind: Percentage (%) normalized to highest intensity and corrected for background

> print(dat)
   sequence.string  value.reported
1   PIPSSSPPPLSSPL           -1.42
2  SRSLSPTRLLSLPPD            6.64
3  SLASVRGLQGRSMSV               5
4  CGNQERKLEGSINDI              11
5  EINLQRNIAGKVVTP            -1.5
6  SSNSHRSLDGLSRTQ            5.49
7  FDQPHPQGLLPCQPQ             4.4
8  HAVSSPDPLLCSDVT         -0.0499
9  RALLERCLKGEGEIE               2

====

# system: USP8 Rhod domain (Homo sapiens, UniProt P40818)
# Construct: USP8 Rhod (174–317) (UniProt: P40818); GST (cleaved yes); made in house; host or cells: Escherichia coli BL21-Gold (DE3)
# Sequence (P40818 174-317): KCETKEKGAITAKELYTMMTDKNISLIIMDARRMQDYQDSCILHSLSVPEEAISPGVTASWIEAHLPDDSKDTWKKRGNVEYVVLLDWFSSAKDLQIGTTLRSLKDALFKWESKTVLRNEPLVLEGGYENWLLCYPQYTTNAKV
# procedure_summary: Peptide-phage display-based deep mutational scanning (DMS), USP8 Rhod domain
# Assay type: binding
# measurement_context: ProP-PD DMS, bait USP8_Rhodanese__P40818_174_317; pair wild-type GMERVLGGLSSPLRLL (wt_00013) vs mutant; positive where wild-type fraction is higher, negative where mutant fraction is higher
I'd appreciate it if you marked entries Condition met when hit_pair_ratio is lower than 100 and Condition not met when it is not.

> print(dat)
     sequence.string        class.label
 1  GMERVLGGLSSPKRLL  Condition not met
 2  GMERVLGGLSSPLTLL      Condition met
 3  GMERVLGGLSSPWRLL      Condition met
 4  GMERVLGGLSSPLRLF      Condition met
 5  GMERVLGGGSSPLRLL      Condition met
 6  GMERVLGGKSSPLRLL      Condition met
 7  GMERVLGGLSSPLRLP  Condition not met
 8  GMERVLGGLSSPLQLL      Condition met
 9  GMERVLGGLHSPLRLL      Condition met
10  GMERVLGGLSSPLGLL  Condition not met
11  GMERVLGGLSEPLRLL      Condition met
12  GMERVLGGLSSPLLLL      Condition met
13  GMERVLGGLSSPLKLL      Condition met
14  GMERVLGGLESPLRLL  Condition not met
15  GMERVLGGLSSPNRLL  Condition not met
16  GMERVLGGLSSLLRLL  Condition not met
17  GMERVLGGLSSTLRLL  Condition not met
18  GMERVLGGLSSPLELL  Condition not met
19  GMERVLGGFSSPLRLL      Condition met
20  GMERVLGGLSSPLSLL      Condition met
21  GMERVLGGLSSPARLL      Condition met
22  GMERVLGGLVSPLRLL  Condition not met
23  GMERVLGGLSSPLHLL      Condition met
24  GMERVLGGLSSPLFLL      Condition met
25  GMERVLGGLSSPLRVL  Condition not met
26  GMERVLGGWSSPLRLL      Condition met
27  GMERVLGGLSSPDRLL      Condition met
28  GMERVLGGLSSPLRNL  Condition not met
29  GMERVLGGLSSPLMLL      Condition met
30  GMERVLGGLSSPLRLG  Condition not met
31  GMERVLGGLSAPLRLL  Condition not met
32  GMERVLGGLSSPERLL      Condition met
33  GMERVLGGLSSPPRLL  Condition not met
34  GMERVLGGLASPLRLL  Condition not met
35  GMERVLGGLISPLRLL  Condition not met
36  GMERVLGGLSSPHRLL      Condition met
37  GMERVLGGLSSPLRIL  Condition not met
38  GMERVLGGLSSQLRLL  Condition not met
39  GMERVLGGLSSPLWLL      Condition met
40  GMERVLGGLSSPRRLL  Condition not met
41  GMERVLGGLSSPLRLT  Condition not met
42  GMERVLGGLSVPLRLL      Condition met
43  GMERVLGGLSSPLRLH      Condition met
44  GMERVLGGLSNPLRLL      Condition met
45  GMERVLGGLSSPLVLL      Condition met
46  GMERVLGGYSSPLRLL      Condition met
47  GMERVLGGLSTPLRLL      Condition met
48  GMERVLGGLSDPLRLL      Condition met
49  GMERVLGGLSSPMRLL      Condition met
50  GMERVLGGLSSPLRLM      Condition met
